# Tested on: ACHN renal
# method summary: NCI tumour cell line growth inhibition, 48 h

molecule: COc1ccc(/C=C2\CCC(CNc3ccc(OC)cc3)C2=O)cc1 (stereo not drawn)
TGI: 58.6 µM

molecule: C[C@@H](CO)[C@@H]1CCC=C2CC[C@]3(C)[C@H](CC[C@@H]4[C@@]5(C)CCCNC(C)(C)[C@@H]5CC[C@]43C)[C@H]21
TGI: 6.52 µM

molecule: c1cc(CNCCN2CCNCC2)ccn1
TGI: > 100 µM

molecule: Nc1nc(-c2ccc(F)cc2)c(-c2ccc3ncccc3n2)s1
TGI: > 25 µM

molecule: CC(=O)O[C@@H]1C2=C(C)C=C(O2)[C@H]2O[C@]2(C)C[C@H]2C=C(C(=O)O2)[C@H](OC(C)=O)CC1[C@@]1(C)CO1 (stereo partly drawn)
TGI: 61.6 µM

molecule: O=C(CCCCCCC(=O)Nc1cccnc1)NO
TGI: > 92.2 µM

molecule: O=C(/C=C/c1cc(O)c(O)cc1O)OCCc1ccccc1
TGI: 26.8 µM

molecule: CC1OC(O[C@H]2C3C=CO[C@@H](OC4OC(CO)C(O)C(O)C4O)C3[C@@]3(COC(=O)/C=C/c4ccc(O)cc4)O[C@@H]23)C(O)C(O)C1O (stereo partly drawn)
TGI: > 100 µM

molecule: O=C1c2ccccc2C(=O)c2c1ccc(C1C(=O)c3ccccc3C1=O)c2-c1c(C2C(=O)c3ccccc3C2=O)ccc2c1C(=O)c1ccccc1C2=O
TGI: > 100 µM

molecule: O=C(O)c1cnc2[nH]ccn2c1=O
TGI: > 100 µM

molecule: O=C(Nc1ccc2ncnc(Nc3ccc(Oc4cccc(F)c4)c(Cl)c3)c2c1)c1ccc(CNCCO)cc1
TGI: 3.05 µM

molecule: O=c1oc2cc(O)ccc2c(O)c1C(c1cccnc1)c1c(O)c2ccc(O)cc2oc1=O
TGI: > 100 µM

molecule: CCOC(=O)C(Cl)(NC(=O)c1c(F)c(F)c(F)c(F)c1F)C(F)(F)F (stereo not drawn)
TGI: > 100 µM

molecule: CCCCCCOP(=O)(OCCCCCC)C(NC(=O)OCC)(C(F)(F)F)C(F)(F)F
TGI: > 100 µM

molecule: O=C(Cn1ccnc1[N+](=O)[O-])c1ccc(F)cc1
TGI: > 100 µM

molecule: CCOC(=O)c1ccc(C(=O)/C(C(C)=O)=C2\CCCN2C)n1C
TGI: > 100 µM

molecule: Cc1ccc(S(=O)(=O)OCC23CCC(CC2)C2CC23)cc1 (stereo not drawn)
TGI: > 100 µM

molecule: C=C(Br)N(CC)CC
TGI: > 100 µM

molecule: Cc1cc(Cc2c(F)c(F)c(C(c3cc(C)no3)c3c(F)c(F)c(F)c(F)c3F)c(F)c2F)on1 (stereo not drawn)
TGI: > 100 µM

molecule: COc1cc2c(cc1C)NC(=O)/C2=C\c1cccc(Oc2ccccc2)c1
TGI: 31 µM

molecule: O=C(/C=C/c1ccc(/C=C/C(=O)c2ccc(O)cc2)cc1)c1ccc(O)cc1
TGI: > 100 µM

molecule: C=C1CCC2C(C)(C)CCC[C@]2(C)[C@H]1CO (stereo partly drawn)
TGI: > 100 µM

molecule: CN(C)CCNC(=O)c1cccc2c1nc(-c1ccccc1)c1ccccc12
TGI: 13.4 µM

###

# Test system: LOX IMVI melanoma
# method summary: NCI tumour cell line growth inhibition, 48 h
property label: TGI

compound: COc1ccc2oc(OC)c(CC=C(C)C)c(=O)c2c1C
property label: TGI
recorded value: > 100 µM
//
compound: Cc1ccc(O)c(-c2cc(-c3cccc(Cl)c3)c(C#N)c(N)n2)c1
property label: TGI
recorded value: 30.8 µM
//
compound: COc1cc(OC)c(/C=C/c2cnc3ccccc3n2)c(OC)c1
property label: TGI
recorded value: > 10 µM
//
compound: COC(=O)CCC(=O)CC(=O)C(=O)Nc1c(Cl)cc([N+](=O)[O-])cc1Cl
property label: TGI
recorded value: > 100 µM
//
compound: Nc1nc(-c2ccccc2)nc(N)c1N=O
property label: TGI
recorded value: 13 µM
//
compound: COc1ccc(Cn2cc3c(c2-c2ccc(OC)cc2)CCc2cnoc2-3)cc1
property label: TGI
recorded value: > 100 µM
//
compound: Nc1[nH]c(=S)nc2snnc12
property label: TGI
recorded value: > 100 µM
//
compound: CCOC(=O)NC(NC1=NCCS1)(C(=O)OCC)C(F)(F)F (stereo unspecified)
property label: TGI
recorded value: > 100 µM
//
compound: Cc1cc(C)nc(SC(C)C(=O)N/N=C/c2ccc(OCc3ccccc3)cc2)n1 (stereo unspecified)
property label: TGI
recorded value: > 100 µM
//
compound: O=C(Cn1ccnc1[N+](=O)[O-])c1ccc(F)cc1
property label: TGI
recorded value: > 100 µM
//
compound: Cc1c(COc2cc(OCc3cccc(C#N)c3)c(CN3C[C@H](O)C[C@@H]3C(=O)O)cc2Cl)cccc1-c1ccc2c(c1)OCCO2
property label: TGI
recorded value: 16 µM

###

# Tested on: RXF 393 renal
# method summary: NCI tumour cell line growth inhibition, 48 h
Some compounds, each annotated with its measured TGI.

compound: CC1OC(O[C@H]2C3C=CO[C@@H](OC4OC(CO)C(O)C(O)C4O)C3[C@@]3(COC(=O)/C=C/c4ccc(O)cc4)O[C@@H]23)C(O)C(O)C1O (some centres undefined)
unit: µM
censor symbol: >
TGI: 100
//
compound: COc1ccc(/C(C#N)=C/c2ccc(OC)c(OC)c2)cc1
unit: µM
censor symbol: >
TGI: 100
//
compound: CN1C(=O)[C@@H]2[C@@H]3c4ccccc4N(S(=O)(=O)C(F)(F)F)[C@@H]3c3[nH]c4ccccc4c3[C@@H]2C1=O
unit: µM
censor symbol: >
TGI: 100
//
compound: Cn1c(-c2ccccc2)cc2c3ccsc3c3ccsc3c21
unit: µM
censor symbol: >
TGI: 100
//
compound: c1cc(CNCCN2CCNCC2)ccn1
unit: µM
censor symbol: >
TGI: 100
//
compound: c1ccc2c(c1)ncn2C1CCCCO1 (centres undefined)
unit: µM
censor symbol: >
TGI: 100
//
compound: O=C(Nc1nc2ncn(CCNCc3ccccc3)c2c(=O)[nH]1)c1ccccc1
unit: µM
censor symbol: >
TGI: 100
//
compound: O=C(CCCCCCC(=O)Nc1cccnc1)NO
unit: µM
censor symbol: =
TGI: 31
//
compound: Cc1noc2nnn(-c3ccc(Cl)cc3)c(=O)c12
unit: µM
censor symbol: =
TGI: 4.79
//
compound: CN(C)CCNC(=O)c1cccc2c1nc(-c1ccccc1)c1ccccc12
unit: µM
censor symbol: =
TGI: 9.43
//
compound: COC1OC(COCc2ccc(Cl)cc2)C(OCc2ccc(Cl)cc2)C1N=[N+]=[N-] (centres undefined)
unit: µM
censor symbol: >
TGI: 100
//
compound: CCCCCCOP(=O)(OCCCCCC)C(NC(=O)OCC)(C(F)(F)F)C(F)(F)F
unit: µM
censor symbol: =
TGI: 76.9
//
compound: COc1cc(O)c(C(=O)/C=C/c2ccc(O)cc2)c(O)c1[C@@H]1C[C@H](CCc2ccc(O)cc2)O[C@H](c2ccc(O)cc2)C1
unit: µM
censor symbol: =
TGI: 9.07
//
compound: Cc1c(COc2cc(OCc3cccc(C#N)c3)c(CN3C[C@H](O)C[C@@H]3C(=O)O)cc2Cl)cccc1-c1ccc2c(c1)OCCO2
unit: µM
censor symbol: =
TGI: 29.9
//
compound: CC(=O)c1ccc(NC(=O)C(=O)Nn2c(=S)[nH]c3ccccc3c2=O)cc1
unit: µM
censor symbol: >
TGI: 100
//
compound: Nc1nc(Cl)cc(NCCC2(CO)CCC2)n1
unit: µM
censor symbol: >
TGI: 100
//
compound: O=[N+]([O-])c1c(Br)sc(Br)c1[N+](=O)[O-]
unit: µM
censor symbol: =
TGI: 2.85
//
compound: C1CCN(c2nc(=[N+]3CCCCC3)ss2)CC1
unit: µM
censor symbol: >
TGI: 100
//
compound: CC(=O)O[C@@H]1C2=C(C)C=C(O2)[C@H]2O[C@]2(C)C[C@H]2C=C(C(=O)O2)[C@H](OC(C)=O)CC1[C@@]1(C)CO1 (some centres undefined)
unit: µM
censor symbol: =
TGI: 36.8

###

# Tested on: SNB-19 CNS
# method summary: NCI tumour cell line growth inhibition, 48 h

compound: O=CC[C@H]1CCc2ccccc2C12CCC(=O)CC2
study system: SNB-19 CNS
TGI: > 100 µM

compound: COC(=O)CCC(=O)CC(=O)C(=O)Nc1c(Cl)cc([N+](=O)[O-])cc1Cl
study system: SNB-19 CNS
TGI: > 100 µM

compound: O=C(NP(=O)(N1CC1)N1CC1)c1cc(I)ccc1I
study system: SNB-19 CNS
TGI: > 100 µM

compound: Fc1ccc(Nc2nc3nonc3nc2Nc2ccc(F)cc2)cc1
study system: SNB-19 CNS
TGI: 16.1 µM

compound: Brc1ccc2c([C@H]3CN[C@@H](c4c[nH]c5cc(Br)ccc45)CN3)c[nH]c2c1
study system: SNB-19 CNS
TGI: 21.8 µM

compound: CCOC(=O)C(C(=S)Nc1ccccc1)c1nn2c(=O)cc(C)nc2s1 (stereo unspecified)
study system: SNB-19 CNS
TGI: > 100 µM
